# System: McyI (Anabaena sp. 90, UniProt Q7WRR2)
# Sequence (Q7WRR2 1-337 limits assumed): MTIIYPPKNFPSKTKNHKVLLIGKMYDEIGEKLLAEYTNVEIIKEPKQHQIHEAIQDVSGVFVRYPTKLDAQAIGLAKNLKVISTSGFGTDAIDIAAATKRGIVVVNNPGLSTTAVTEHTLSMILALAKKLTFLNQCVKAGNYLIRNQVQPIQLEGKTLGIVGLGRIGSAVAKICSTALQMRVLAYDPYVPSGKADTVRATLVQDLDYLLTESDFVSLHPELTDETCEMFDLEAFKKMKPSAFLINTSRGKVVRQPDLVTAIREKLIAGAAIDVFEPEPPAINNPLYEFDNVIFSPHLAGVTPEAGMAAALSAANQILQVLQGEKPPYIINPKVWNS
Test readout: pKd
# log scale: pKd equals minus log10 of the concentration in mol/L

Find the measured pKd of NC(=O)C1=CN([C@@H]2O[C@H](COP(=O)(O)OP(=O)(O)OC[C@H]3O[C@@H](n4cnc5c(N)ncnc54)[C@H](OP(=O)(O)O)[C@@H]3O)[C@@H](O)[C@H]2O)C=CC1 with McyI (Anabaena sp. 90, UniProt Q7WRR2) as test system. 4.80

Where do these numbers come from? They come from paper PMC11977255.
